Tested on: Serratia marcescens expressing IMP-1 (CL5741)
Type: cell-based
Conditions: with imipenem 1 μg/ml; 95% inhibition of bacterial growth
property.measured: CL5741 S. marcescens MITC95 IMP (µM)
# number only, unit µM dropped from output

Previously resolved entries follow.
[
  {
    "smiles.structure": "N[C@@H]1CCN(c2ccc(S(=O)(=O)N[C@@H]3CCNC3)c(S(N)(=O)=O)c2-c2nn[nH]n2)C[C@@H]1F",
    "CL5741 S. marcescens MITC95 IMP [µM]": 0.20
  },
  {
    "smiles.structure": "NS(=O)(=O)c1c(S(=O)(=O)C2CNC2)ccc(N2CCC(CO)CC2)c1-c1nnn[nH]1",
    "CL5741 S. marcescens MITC95 IMP [µM]": 6.25
  }
]

Query string: I am curious: what CL5741 S. marcescens MITC95 IMP value has been reported for "NS(=O)(=O)c1c(S(=O)(=O)N[C@@H]2CCNC2)ccc(N2CCN(CCO)CC2)c1-c1nnn[nH]1" ?
Result string: 0.20

====

// values below are reported pIC50
Target: VIM-2 (Escherichia coli)
Experiment: biochemical
Conditions: CCF2-FA fluorescence assay; read-out: VIM2 IC50
Remember the convention: pIC50 equals -log10 of concentration in molar.

Query string: I am curious: what pIC50 value has been reported for "NS(=O)(=O)c1c(S(=O)(=O)N[C@@H]2CCNC2)ccc(N2CCC(O)CC2)c1-c1nnn[nH]1" ?
Result string: 9.18

Query string: I am curious: what pIC50 value has been reported for "NC[C@@H](O)CNS(=O)(=O)c1ccc(N2CCCN(CCO)CC2)c(-c2nn[nH]n2)c1S(N)(=O)=O" ?
Result string: 8.00

Query string: I am curious: what pIC50 value has been reported for C[C@H](CN)NS(=O)(=O)c1ccc(N2CC[C@@H](N)[C@@H](F)C2)c(-c2nn[nH]n2)c1S(N)(=O)=O (racemic) ?
Result string: 8.60

Query string: I am curious: what pIC50 value has been reported for "NS(=O)(=O)c1c(S(=O)(=O)N[C@@H]2CCNC2)ccc(N2CCC(Cc3ccccn3)CC2)c1-c1nnn[nH]1" ?
Result string: 9.34

Query string: I am curious: what pIC50 value has been reported for "C[C@@H](CN)NS(=O)(=O)c1ccc(N2CCC(O)(CN)CC2)c(-c2nn[nH]n2)c1S(N)(=O)=O" ?
Result string: 8.32

Query string: I am curious: what pIC50 value has been reported for "N[C@H]1CCCN(c2ccc(S(=O)(=O)N[C@@H]3CCNC3)c(S(N)(=O)=O)c2-c2nn[nH]n2)C1=O" ?
Result string: 8.15

Query string: I am curious: what pIC50 value has been reported for "NCCOCC1CCN(c2ccc(S(=O)(=O)NC[C@H](O)CN)c(S(N)(=O)=O)c2-c2nn[nH]n2)CC1" ?
Result string: 8.92

====

// values below are reported Efflux ratio
System: P. aeruginosa MB9798 (efflux+, IMP-1 plasmid)
Conditions: fold difference between efflux+ (MB9798) and efflux− (MB9799) strains
From the text: The strain background is Pseudomonas aeruginosa PAO1. A wild-type (M135919) and an isogenic strain in which multiple efflux pumps have been disrupted genetically were used. The MBL IMP-1, obtained from a clinical isolate was introduced into the strain pair by the following process: The plasmid DNA was transformed into parental MB5919 (oprD+, efflux+, inducible AmpC) and MB5890 (oprD+, efflux−, inducible AmpC) isogenic strains by electroporation. […]
// print number alone

[
  {
    "compound": "NC[C@H]1CCCN(c2ccc(S(=O)(=O)N[C@@H]3CCNC3)c(S(N)(=O)=O)c2-c2nnn[nH]2)C1",
    "recorded.measurement": 2.00
  },
  {
    "compound": "NCC1CCN(c2ccc(S(=O)(=O)NC[C@H](O)CN)c(S(N)(=O)=O)c2-c2nnn[nH]2)CC1",
    "recorded.measurement": 2.00
  },
  {
    "compound": "CN(C)[C@@H]1CCN(c2ccc(S(=O)(=O)N[C@@H]3CCNC3)c(S(N)(=O)=O)c2-c2nnn[nH]2)C1",
    "recorded.measurement": 8.00
  },
  {
    "compound": "NC[C@@H](O)CNS(=O)(=O)c1ccc(N2CCC3CNCC3C2)c(-c2nnn[nH]2)c1S(N)(=O)=O (stereo partly shown)",
    "recorded.measurement": 4.00
  },
  {
    "compound": "NS(=O)(=O)c1ccc(N2CCC3(CCNCC3)C2=O)c(-c2nn[nH]n2)c1S(N)(=O)=O",
    "recorded.measurement": 8.00
  }
]

Query string: I am curious: what Efflux ratio value has been reported for "NCCCC1CCN(c2ccc(S(=O)(=O)NC[C@H](O)CN)c(S(N)(=O)=O)c2-c2nn[nH]n2)CC1" ?
Result string: 1.00

Query string: I am curious: what Efflux ratio value has been reported for C[C@H](CN)NS(=O)(=O)c1ccc(N2CC[C@@H](N)[C@@H](F)C2)c(-c2nn[nH]n2)c1S(N)(=O)=O (racemic) ?
Result string: 2.00
